Hey, just so you know, these numbers are from the RNAGym collection of RNA variant scans (doi:10.1126/science.aae0568).

B1: tRNA (parent)
chain: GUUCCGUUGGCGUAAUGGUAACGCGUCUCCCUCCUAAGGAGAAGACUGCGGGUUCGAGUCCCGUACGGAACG

# Variants of: B1
# Experiment Summary: yeast fitness relative to wild type (ratio to wild type); higher = fitter; tRNA-Arg(CCU), competitive growth, 37 C, YPD
Fewer inactive variants are shown than the library holds.
Measured Quantity: yeast fitness

* C27U A45C U64G | 0.584
* C22G C24G C29U C33U A37C G52A | 0.625
* C22G U47C U53G | 0.551
* U8C A20G C66U | 0.624
* C27G G68C | 0.65
* A14G G44C G58A A65G | 0.553
* A15U C49G A70G | 0.576
* C30U C33U | 0.669
* A37U G38C | 0.557
* G10A A57C | 0.525
* U2A U19G A65U | 0.644
* C31G A42U A43C | 1.15
* C27U C55A A69U | 0.549
* U7A A37U C49U C55U A57C C61U | 0.934
* G56A G63A | 0.726
* G17A C66A | 0.647
* C34U A42C | 0.664
* U19A U59A | 0.845
* C46G C66U | 0.928
* G17C C22A C31G C55G G68A | 0.587
* U2G U54A C61U A65C G67U | 0.576
* C29U C34A G51A | 0.664
* G41C G48A C55A | 0.569
* G6C A45C G67C | 0.536
* G18A C24A | 0.564
* U19A A37C C49G | 0.501
* C11U C33U A70U | 0.612
* C33U C46A C55G | 0.604
* C4A U28C | 0.64
* U8C C27U C62U | 0.736
* U8C A43C C49G C61A | 0.693
* G6C G12A G58C | 0.964
* G18C C22A | 0.582
* G10C A45U C49G | 0.583
* G10C A14C A21U C31U | 0.773
* A15U U53C | 0.71
* U8C C61G | 0.678
* C11U C24G C33A A40C | 0.955
* A21C U32C | 0.864
* U8A G18A | 0.578
* C4A C24U G58A C62U | 0.587
